Data origin, for the record: patent US20240002441A1

study_system: NEP (Homo sapiens, UniProt P08473)
Construct: purchased R & D systems 1182-ZNC-010
Sequence (P08473 whole entry): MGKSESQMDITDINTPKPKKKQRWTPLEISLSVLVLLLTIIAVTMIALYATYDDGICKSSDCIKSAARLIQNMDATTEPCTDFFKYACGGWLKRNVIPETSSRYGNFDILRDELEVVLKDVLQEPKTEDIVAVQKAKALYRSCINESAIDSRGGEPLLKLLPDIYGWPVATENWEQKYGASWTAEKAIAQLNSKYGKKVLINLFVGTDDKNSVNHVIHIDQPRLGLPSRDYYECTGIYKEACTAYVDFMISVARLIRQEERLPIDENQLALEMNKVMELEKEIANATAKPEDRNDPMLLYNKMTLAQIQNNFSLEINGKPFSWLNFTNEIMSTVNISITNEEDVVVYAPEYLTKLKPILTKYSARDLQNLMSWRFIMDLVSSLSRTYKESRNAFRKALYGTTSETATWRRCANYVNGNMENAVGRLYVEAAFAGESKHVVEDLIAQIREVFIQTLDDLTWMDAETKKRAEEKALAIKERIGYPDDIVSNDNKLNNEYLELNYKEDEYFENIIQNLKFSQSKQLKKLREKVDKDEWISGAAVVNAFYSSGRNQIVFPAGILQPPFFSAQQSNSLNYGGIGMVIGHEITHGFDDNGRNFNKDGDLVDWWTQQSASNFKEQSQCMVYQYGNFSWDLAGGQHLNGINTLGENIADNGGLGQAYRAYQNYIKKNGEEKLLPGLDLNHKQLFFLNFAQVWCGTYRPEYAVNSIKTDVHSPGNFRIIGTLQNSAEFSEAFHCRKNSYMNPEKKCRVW
test_description: QFS plate reader enzyme assay, peptide screen on NEP activity (Example 3)
Format: biochemical
details: peptide 10 ng/μL, NEP 0.05 ng/μL, 1 h at 37° C.; compared to enzyme alone

| substance | NEP activity |
| --- | --- |
| H-SLFELGKMIL-OH [SEQ ID NO:1, H2N-SLFELGKMIL-OH] | significant increase |
| H-SLFELGKMILQETGKNPAKS-OH [SEQ ID NO:9] | significantly stimulate |
| H-SLFELGKMILQETGKN-OH [SEQ ID NO:11] | significantly stimulate |
| H-SLFELGKMILQETG-OH [SEQ ID NO:12] | significantly stimulate |
| H-SLFELGKMILQE-OH [SEQ ID NO:5] | significant increase |

----------
study_system: ECE1 (Homo sapiens)
Construct: purchased R & D systems 1784-ZN-010
Sequence (P42892 1-770): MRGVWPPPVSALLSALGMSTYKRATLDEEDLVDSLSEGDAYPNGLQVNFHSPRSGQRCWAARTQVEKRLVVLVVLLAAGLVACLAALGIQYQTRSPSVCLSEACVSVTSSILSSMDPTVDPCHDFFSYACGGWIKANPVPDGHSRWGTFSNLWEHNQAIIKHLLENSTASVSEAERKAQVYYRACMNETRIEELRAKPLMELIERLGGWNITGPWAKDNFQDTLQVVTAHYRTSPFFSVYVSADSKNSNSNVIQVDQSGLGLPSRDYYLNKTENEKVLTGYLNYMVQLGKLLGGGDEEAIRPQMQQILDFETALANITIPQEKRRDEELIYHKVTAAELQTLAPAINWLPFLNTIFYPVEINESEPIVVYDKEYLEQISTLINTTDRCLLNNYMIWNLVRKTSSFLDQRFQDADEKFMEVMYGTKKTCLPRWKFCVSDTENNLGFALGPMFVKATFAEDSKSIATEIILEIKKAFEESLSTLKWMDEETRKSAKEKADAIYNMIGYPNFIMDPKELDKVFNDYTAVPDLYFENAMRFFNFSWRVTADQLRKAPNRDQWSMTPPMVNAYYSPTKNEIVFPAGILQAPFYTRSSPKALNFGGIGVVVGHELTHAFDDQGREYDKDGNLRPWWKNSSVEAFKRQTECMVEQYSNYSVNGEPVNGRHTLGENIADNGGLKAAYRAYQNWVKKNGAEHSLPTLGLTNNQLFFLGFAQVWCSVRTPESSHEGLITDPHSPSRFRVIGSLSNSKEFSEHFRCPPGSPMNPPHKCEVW
test_description: QFS plate reader enzyme assay, peptide screen on ECE1 activity (Example 3)
Type: biochemical
details: peptide 10 ng/μL, ECE1 0.05 ng/μL, 1 h at 37° C.; compared to enzyme alone
Experimental: Plate reader-based enzyme assays were performed using a quenched fluorescent substrate (QFS) in a 96-well format using a SpectraMAX M4 Microplate reader (Molecular Devices). The increase in fluorescence following addition of QFS (40 μM) was taken as evidence of enzyme activity. Fluorescence was monitored over 2 h at 37° C. using κEx=320 nm and λEm=405 nm. […] Specific enzyme activity was expressed as a rate of substrate cleavage calculated using a standard curve of 7-methoxy-coumarin-4-acetic acid. […]

| substance | ECE1 activity |
| --- | --- |
| H-SLFELGKMILQETG-OH [SEQ ID NO:12] | significantly stimulate |
| H-SLFELGKMILQETGKNPAKS-OH [SEQ ID NO:9] | significantly stimulate |
| H-SLFELGKMILQE-OH [SEQ ID NO:5] | no effect |
| H-SLFELGKMIL-OH [SEQ ID NO:1, H2N-SLFELGKMIL-OH] | no effect |
| H-SLFELGKMILQETGKN-OH [SEQ ID NO:11] | significantly stimulate |
